- System: breast cancer cell line, SK-Br3
- Experimental protocol: Inhibitory effect on growth of cancer cell line SK-Br3, SRB
- Format: cell-based
- Recorded conditions: Homo sapiens, SK-BR-3, 72 h, overexpressed EGFR2 (HER-2)
pIC50: −log10 of the molar value.
Classification field: 1 (yes) = pIC50 at or over 7; 0 (no) = pIC50 under 7.

INSERT INTO measurements (compound, label_class) VALUES
  ('C=CC(=O)Nc1cc2c(Nc3ccc(Br)c(Cl)c3F)ncnc2cc1OCCNC(=O)CN(C)C', '1 (yes)'),
  ('C=CC(=O)Nc1cc2c(Nc3cc(OC)c(Cl)cc3OC)ncnc2cc1OCCNC(=O)CN(C)C', '1 (yes)'),
  ('C=CNC(=O)NCCOc1cc2ncnc(Nc3ccc(Br)cc3F)c2cc1NC(=O)C=C', '0 (no)'),
  ('C=CC(=O)Nc1cc2c(Nc3ccc(Br)cc3F)ncnc2cc1OCCNC(=O)C(C)N (centres unmarked)', '0 (no)'),
  ('C=CC(=O)Nc1cc2c(Nc3ccc(Br)cc3F)ncnc2cc1OCCCNC(C)=O', '1 (yes)'),
  ('C=CC(=O)Nc1cc2c(Nc3ccc(Br)cc3F)ncnc2cc1OCCNC(=O)CN1CCC1', '0 (no)'),
  ('C=CC(=O)Nc1cc2c(Nc3cc(OC)c(Cl)cc3OC)ncnc2cc1OCCNC(C)=O', '0 (no)'),
  ('C=CC(=O)Nc1cc2c(Nc3ccc(Br)c(Cl)c3F)ncnc2cc1OCCNC(=O)CC', '1 (yes)'),
  ('C=CC(=O)Nc1cc2c(Nc3ccc(Br)cc3F)ncnc2cc1OCC(=O)NCCN(CC)CC', '0 (no)'),
  ('C=CC(=O)Nc1cc2c(Nc3ccc(Br)cc3F)ncnc2cc1OCCNC(=O)CCO', '0 (no)'),
  ('C=CC(=O)Nc1cc2c(Nc3ccc(Br)cc3F)ncnc2cc1OCCNC(=O)CCN', '0 (no)');

---

- Test system: breast cancer cell line, SK-Br3
- Experimental protocol: Inhibitory effect on growth of cancer cell line SK-Br3, SRB
- Assay type: cell-based
- Recorded conditions: Homo sapiens, SK-BR-3, 72 h, overexpressed EGFR2 (HER-2)
pIC50: −log10 of the molar value.
Observation type: pIC50

INSERT INTO results (compound, assay_target, experimental_result) VALUES
  ('C=CC(=O)Nc1cc2c(Nc3ccc(Br)cc3F)ncnc2cc1OCCNS(C)(=O)=O', 'breast cancer cell line, SK-Br3', 6.78),
  ('C=CC(=O)Nc1cc2c(Nc3ccc(Br)c(Cl)c3F)ncnc2cc1OCCNC(C)=O', 'breast cancer cell line, SK-Br3', 7.43),
  ('C=CC(=O)Nc1cc2c(Nc3ccc(Br)cc3F)ncnc2cc1SCCNC(C)=O', 'breast cancer cell line, SK-Br3', 5.36),
  ('C=CC(=O)Nc1cc2c(Nc3ccc(Br)cc3F)ncnc2cc1OCCNc1nccs1', 'breast cancer cell line, SK-Br3', 5.89),
  ('C=CC(=O)Nc1cc2c(Nc3ccc(Br)cc3F)ncnc2cc1OCCNC(=S)NC', 'breast cancer cell line, SK-Br3', 6.65),
  ('C=CC(=O)Nc1cc2c(Nc3ccc(F)c(Cl)c3)ncnc2cc1OCCNC(C)=O', 'breast cancer cell line, SK-Br3', 7.59),
  ('C=CC(=O)Nc1cc2c(Nc3ccc(Br)cc3F)ncnc2cc1OCC1CNC(=O)O1 (centres unmarked)', 'breast cancer cell line, SK-Br3', 6.47),
  ('C=CC(=O)Nc1cc2c(Nc3cc(Cl)c(Cl)cc3F)ncnc2cc1OCCNC(C)=O', 'breast cancer cell line, SK-Br3', 7.66);

---

For VEGFR2 (KDR) (Homo sapiens (Human), UniProt P35968), measured IC50 is reported for the entries below.
Observation type: IC50 (nM)

INSERT INTO assay_data (smiles_entry, experimental_result) VALUES
  ('C=CC(=O)Nc1cc2c(Nc3ccc(Br)cc3F)ncnc2cc1OCCNC(=O)CC', 250),
  ('C=CC(=O)Nc1cc2c(Nc3ccc(Br)cc3F)ncnc2cc1OCc1ccncc1', 500),
  ('C=CC(=O)Nc1cc2c(Nc3ccc(Br)cc3F)ncnc2cc1OCCNC(=O)CN', 235),
  ('C=CC(=O)Nc1cc2c(Nc3c(F)cc(Br)cc3F)ncnc2cc1OCCNC(=O)CN(C)C', 268),
  ('C=CC(=O)Nc1cc2c(Nc3ccc(Br)cc3F)ncnc2cc1OCCNC(=O)NCC', 250),
  ('C=CC(=O)Nc1cc2c(Nc3ccc(Br)cc3F)ncnc2cc1OCCNC(=O)CN(C)C', 584);

---

- Assay target: VEGFR2 (KDR) (Homo sapiens (Human), UniProt P35968)
- Sequence (P35968 20-1356): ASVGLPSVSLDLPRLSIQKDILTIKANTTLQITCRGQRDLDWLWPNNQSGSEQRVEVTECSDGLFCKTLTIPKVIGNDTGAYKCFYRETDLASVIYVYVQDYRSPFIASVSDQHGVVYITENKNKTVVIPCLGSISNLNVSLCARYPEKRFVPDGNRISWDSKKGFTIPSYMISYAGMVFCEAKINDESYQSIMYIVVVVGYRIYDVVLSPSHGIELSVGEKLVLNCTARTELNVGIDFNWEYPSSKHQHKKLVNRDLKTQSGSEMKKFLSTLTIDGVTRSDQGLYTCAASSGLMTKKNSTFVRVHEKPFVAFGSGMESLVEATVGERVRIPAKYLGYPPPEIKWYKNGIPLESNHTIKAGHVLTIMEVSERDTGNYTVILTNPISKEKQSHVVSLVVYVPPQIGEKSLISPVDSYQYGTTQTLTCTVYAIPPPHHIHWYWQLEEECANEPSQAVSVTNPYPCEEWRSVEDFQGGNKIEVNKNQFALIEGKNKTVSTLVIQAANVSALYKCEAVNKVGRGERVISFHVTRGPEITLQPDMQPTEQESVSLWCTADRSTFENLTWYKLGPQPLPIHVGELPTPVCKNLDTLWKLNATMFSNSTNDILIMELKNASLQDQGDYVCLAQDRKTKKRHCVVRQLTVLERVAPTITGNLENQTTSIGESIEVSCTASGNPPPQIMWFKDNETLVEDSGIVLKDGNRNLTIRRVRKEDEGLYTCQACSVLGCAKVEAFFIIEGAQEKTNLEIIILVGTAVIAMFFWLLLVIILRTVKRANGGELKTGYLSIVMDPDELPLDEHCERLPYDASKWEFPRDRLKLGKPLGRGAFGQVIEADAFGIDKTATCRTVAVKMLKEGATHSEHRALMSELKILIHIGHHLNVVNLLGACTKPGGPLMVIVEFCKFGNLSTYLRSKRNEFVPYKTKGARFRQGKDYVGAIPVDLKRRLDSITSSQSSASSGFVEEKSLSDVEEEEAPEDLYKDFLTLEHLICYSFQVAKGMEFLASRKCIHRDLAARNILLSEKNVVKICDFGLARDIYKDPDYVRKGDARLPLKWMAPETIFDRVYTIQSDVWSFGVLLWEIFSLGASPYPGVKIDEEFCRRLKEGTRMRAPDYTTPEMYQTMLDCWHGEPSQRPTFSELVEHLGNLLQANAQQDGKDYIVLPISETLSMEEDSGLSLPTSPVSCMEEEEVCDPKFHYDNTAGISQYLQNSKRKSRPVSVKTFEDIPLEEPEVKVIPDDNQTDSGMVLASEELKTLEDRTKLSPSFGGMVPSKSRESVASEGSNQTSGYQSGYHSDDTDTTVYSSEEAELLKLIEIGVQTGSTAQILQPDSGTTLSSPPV
pIC50: −log10 of the molar value.
Observation type: pIC50

INSERT INTO measurements (compound, experimental_result) VALUES
  ('C=CC(=O)Nc1cc2c(Nc3ccc(Cl)cc3F)ncnc2cc1OCCNC(=O)CN(C)C [Example 116]', 6.12),
  ('C=CC(=O)Nc1cc2c(Nc3ccc(Br)c(Cl)c3F)ncnc2cc1OCCNC(=O)CCN1CCCCC1 [Example 147]', 7.10),
  ('C=CC(=O)Nc1cc2c(Nc3ccc(Br)c(Cl)c3F)ncnc2cc1OCCNC(=O)OC [Example 165]', 7.10),
  ('C=CC(=O)Nc1cc2c(Nc3ccc(Br)cc3F)ncnc2cc1OCCCNC(=O)CC [Example 87]', 6.16),
  ('C=CC(=O)Nc1cc2c(Nc3ccc(Br)cc3F)ncnc2cc1OCCNC(=O)C(C)C [Example 48]', 6.16),
  ('C=CC(=O)Nc1cc2c(Nc3ccc(Br)cc3F)ncnc2cc1OCCNC(=O)C=CC [Example 50]', 7.18),
  ('C=CC(=O)Nc1cc2c(Nc3ccc(F)c(F)c3F)ncnc2cc1OCCNC(C)=O [Example 118]', 6.31),
  ('C=CC(=O)Nc1cc2c(Nc3ccc(Cl)cc3Cl)ncnc2cc1OCCNC(C)=O [Example 113]', 6.57);

---

Recorded measurements of pIC50, one per entry
- Tested on: breast cancer cell line, SK-Br3
- Experimental protocol: Inhibitory effect on growth of cancer cell line SK-Br3, SRB
- Assay type: cell-based
- Recorded conditions: Homo sapiens, SK-BR-3, 72 h, overexpressed EGFR2 (HER-2)
pIC50: −log10 of the molar value.
Observation type: pIC50

INSERT INTO measurements (compound, experimental_result) VALUES
  ('C=CC(=O)Nc1cc2c(Nc3ccc(Br)cc3F)ncnc2cc1OCCNC(N)=O [Example 24]', 7.12),
  ('C=CC(=O)Nc1cc2c(Nc3ccc(Br)cc3F)ncnc2cc1OCCNC(=O)C1CCCN1C(C)=O (centres unmarked) [Example 105]', 7.00),
  ('C=CC(=O)Nc1cc2c(Nc3ccc(Br)cc3F)ncnc2cc1OCCNC(=O)N1CCNCC1 [Example 94]', 5.59),
  ('C=CC(=O)Nc1cc2c(Nc3ccc(Br)cc3F)ncnc2cc1OCCNC(=O)CN(C)CC [Example 56]', 6.89),
  ('C=CC(=O)Nc1cc2c(Nc3ccc(Br)cc3F)ncnc2cc1OCCNC(=O)C=CC [Example 50]', 7.15),
  ('C=CC(=O)Nc1cc2c(Nc3c(F)cc(Br)cc3F)ncnc2cc1OCCNC(C)=O [Example 120]', 6.73),
  ('C=CC(=O)Nc1cc2c(Nc3ccc(Br)cc3F)ncnc2cc1OCCNC(=O)CN(C)C [Example 25]', 7.68),
  ('C=CC(=O)Nc1cc2c(Nc3cc(Cl)c(Br)cc3F)ncnc2cc1OCCNC(=O)CN(C)C [Example 135]', 7.38),
  ('C=CC(=O)Nc1cc2c(Nc3cccc(Cl)c3F)ncnc2cc1OCCNC(=O)CN(C)C [Example 117]', 5.90),
  ('C=CC(=O)Nc1cc2c(Nc3cc(Cl)c(Cl)cc3F)ncnc2cc1OCCNC(=O)CS(C)(=O)=O [Example 139]', 6.96),
  ('C=CC(=O)Nc1cc2c(Nc3ccc(Br)cc3F)ncnc2cc1OCCNC(=O)C(=O)O [Example 72]', 5.27),
  ('C=CC(=O)Nc1cc2c(Nc3ccc(Br)cc3F)ncnc2cc1OCCCCNC(C)=O [Example 20]', 5.96),
  ('C=CC(=O)Nc1cc2c(Nc3ccc(Br)cc3F)ncnc2cc1OCCNC(=O)N1CCOCC1 [Example 93]', 7.28),
  ('C=CC(=O)Nc1cc2c(Nc3ccc(Br)cc3F)ncnc2cc1OCC1CCN(C(=O)C=C)CC1 [Example 5]', 6.62),
  ('C=CC(=O)Nc1cc2c(Nc3ccc(Br)cc3F)ncnc2cc1OCCNC(=O)c1cccs1 [Example 92]', 6.36),
  ('C=CC(=O)Nc1cc2c(Nc3ccc(Br)cc3F)ncnc2cc1OC(C)CNC(C)=O (centres unmarked) [Example 80]', 6.68),
  ('C=CC(=O)Nc1cc2c(Nc3ccc(Br)cc3F)ncnc2cc1OC[C@H](C)NC(C)=O [Example 83]', 6.03);
